System: IGROV1 ovarian
Experiment: NCI tumour cell line growth inhibition, 48 h
quantity: GI50

[
  {
    "molecule": "CN(C)CCOC(=O)Nc1nc2ccc(Sc3ccccc3)cc2[nH]1",
    "measurement_target": "IGROV1 ovarian",
    "reported_result": "6.32 µM"
  },
  {
    "molecule": "CCCCCCCC(=O)[O][Hg][CH2]C1COC([CH2][Hg][O]C(=O)CCCCCCC)CO1 (stereo not given)",
    "measurement_target": "IGROV1 ovarian",
    "reported_result": "18 µM"
  },
  {
    "molecule": "Cc1cc(Cl)cc(Cc2cc(Cl)cc(C)c2O)c1O",
    "measurement_target": "IGROV1 ovarian",
    "reported_result": "5.18 µM"
  },
  {
    "molecule": "COc1cc2c(cc1C)NC(=O)/C2=C\\c1c[nH]c2ccccc12",
    "measurement_target": "IGROV1 ovarian",
    "reported_result": "4.44 µM"
  },
  {
    "molecule": "[CH3][Sn]([CH3])([CH3])[O][N+](=O)[O-]",
    "measurement_target": "IGROV1 ovarian",
    "reported_result": "2.39 µM"
  }
]
